The measurements presented in this section are drawn from ChEMBL document CHEMBL4118159.

# Target or system: hERG (KCNH2) (Homo sapiens)
# Sequence (Q12809 whole entry): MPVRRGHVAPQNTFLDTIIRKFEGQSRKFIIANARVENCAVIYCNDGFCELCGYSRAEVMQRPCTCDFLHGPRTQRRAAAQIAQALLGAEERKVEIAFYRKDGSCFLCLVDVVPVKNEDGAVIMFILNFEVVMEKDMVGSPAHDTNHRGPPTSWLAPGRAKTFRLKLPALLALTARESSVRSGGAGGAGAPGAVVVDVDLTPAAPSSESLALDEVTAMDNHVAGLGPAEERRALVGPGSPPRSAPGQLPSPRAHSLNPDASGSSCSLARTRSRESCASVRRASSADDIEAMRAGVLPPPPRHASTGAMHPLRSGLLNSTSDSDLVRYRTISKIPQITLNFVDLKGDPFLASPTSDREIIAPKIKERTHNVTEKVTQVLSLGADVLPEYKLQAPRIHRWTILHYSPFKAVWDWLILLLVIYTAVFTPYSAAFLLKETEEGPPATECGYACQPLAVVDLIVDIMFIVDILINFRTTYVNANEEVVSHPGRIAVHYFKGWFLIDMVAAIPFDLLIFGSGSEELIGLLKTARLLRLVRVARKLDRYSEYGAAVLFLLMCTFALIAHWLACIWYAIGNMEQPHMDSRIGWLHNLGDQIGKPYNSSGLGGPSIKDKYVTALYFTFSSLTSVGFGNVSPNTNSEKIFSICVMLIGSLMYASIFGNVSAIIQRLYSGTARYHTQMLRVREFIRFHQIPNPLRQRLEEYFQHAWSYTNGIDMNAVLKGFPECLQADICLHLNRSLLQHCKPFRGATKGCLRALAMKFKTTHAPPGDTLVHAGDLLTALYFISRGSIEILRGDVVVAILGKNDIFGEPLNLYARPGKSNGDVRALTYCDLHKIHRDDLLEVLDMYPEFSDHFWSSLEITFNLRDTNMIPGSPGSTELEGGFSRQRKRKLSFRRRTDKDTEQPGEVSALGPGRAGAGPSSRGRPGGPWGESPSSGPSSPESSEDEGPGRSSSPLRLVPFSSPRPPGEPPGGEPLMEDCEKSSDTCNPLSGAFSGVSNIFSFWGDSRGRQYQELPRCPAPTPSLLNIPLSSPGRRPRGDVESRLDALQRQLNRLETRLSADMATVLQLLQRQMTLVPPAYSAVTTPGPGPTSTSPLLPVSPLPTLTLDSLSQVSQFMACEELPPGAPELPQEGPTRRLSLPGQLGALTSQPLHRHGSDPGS
# Assay: Inhibition of human ERG at 10 uM by patch clamp assay relative to control
Quantity kind: inhibition at 10 µM (%)
Give the number; % is assumed, so skip it.

Form: compound = CCn1ncc2c1CC[C@@H](Nc1nc3c(-c4ccc(F)cc4C)cccn3n1)C2 ; inhibition at 10 µM = 39

###

# Assay: Drug uptake in Han Wistar rat muscle at 10 umol/kg, po administered via gavage measured 3 hrs post dose by LC/MS/MS analysis
# Assay type: ADME, organism-based, Muscle tissue
# Study conditions: read-out: Drug uptake
Quantity kind: concentration at 3 h (µM)
Return type: number; implicit unit µM.

Lab note: CCn1ncc2c1CC[C@@H](Nc1nc3c(-c4ccc(F)cc4C)cccn3n1)C2 gave concentration at 3 h of 2.6

###

# Target or system: Gamma-secretase
# Assay: Modulation of gamma secretase in human H4 cells expressing human wild type APP assessed as inhibition of amyloid beta 42 production after 22 hrs by electrochemiluminescence assay
# Type: cell-based
As shown below, each of these compounds has a reported IC50 value.
Express your answer in nM, writing the number without its unit.

Study these solved cases before continuing.
Measured IC50, CCn1ncc2c1CCC(Nc1nc3c(-c4ccccc4C)cccn3n1)C2 (stereo unspecified) : 160

For this compound ( CCn1ncc2c1CCC(Nc1nc3c(-c4cccnc4C)cccn3n1)C2 (stereo unspecified) ), measured IC50 is 680

Per the records, this compound ( CCc1nnc2n1CCC(Nc1nc3c(-c4ccc(F)cc4C)cccn3n1)C2 (stereo unspecified) ) has IC50 equal to 1390

Note to self: IC50 recorded for CCn1ncc2c1CCC(Nc1nc3c(-c4ccc(OC)nc4)cccn3n1)C2 (stereo unspecified) was 90

Looking up CCn1ncc2c1CCC(Nc1nc3c(-c4ccc(C)nc4)cccn3n1)C2 (stereo unspecified) , I see its IC50 listed as 670

***
// field: IC50; key: CCn1ncc2c1CCC(Nc1nc3c(-c4ccc(F)cc4C)cccn3n1)C2 (stereo unspecified) ; value = 70

###

# Assay: Apparent permeability from apical to basolateral side in MDCK cells expressing human MDR1 at 1 uM at pH 7.4
# Assay type: ADME, cell-based, Canis lupus familiaris
# Study conditions: dog, MDCK-MDR1, pH 7.4
Quantity kind: Papp A→B at 1 µM (×10⁻⁶ cm/s)
Write it as a number; the unit ×10⁻⁶ cm/s goes unstated.

Entry under test: CCn1ncc2c1CC[C@@H](Nc1nc3c(-c4ccc(F)cc4C)cccn3n1)C2 . Its Papp A→B at 1 µM was 78

###

# Assay: Ratio of drug uptake in Han Wistar rat brain to plasma at 10 umol/kg, po administered via gavage measured 3 hrs post dose by LC/MS/MS analysis
# Format: ADME, organism-based
Quantity kind: Kp at 3 h
Quick one: just the number, no unit, thanks!

So for CCn1ncc2c1CC[C@@H](Nc1nc3c(-c4ccc(F)cc4C)cccn3n1)C2 , the logged Kp at 3 h turned out to be 1.1

###

# Target or system: Gamma-secretase
# Assay: Modulation of gamma secretase in human H4 cells expressing human wild type APP assessed as inhibition of amyloid beta 42 production after 22 hrs by electrochemiluminescence assay
# Format: cell-based
Quantity kind: pIC50
Notebook: values listed as pIC50 are -log10 of the concentration (mol/L).

For reference, reported pIC50 for CCn1nnc2c1CCC(Nc1nc3c(-c4ccc(F)cc4C)cccn3n1)C2 (stereo unspecified) stands at 5.66

Sample Cc1cc(F)ccc1-c1cccn2nc(NC3CCc4c(cnn4C(C)C)C3)nc12 (stereo unspecified) ; pIC50 observed: 6.37

The value of pIC50 measured for the molecule Cc1cc(F)ccc1-c1cccn2nc(Nc3ccc4c(cnn4C)c3)nc12 turned out to be 5.92

New cases:
Entry under test: CCn1ncc2c1CCC(Nc1nc3c(-c4cnccc4C)cccn3n1)C2 (stereo unspecified) . Its pIC50 was 6.14

// sample CCCn1ncc2c1CCC(Nc1nc3c(-c4ccc(F)cc4C)cccn3n1)C2 (stereo unspecified) , its pIC50 was 7.22

response.value for CCn1ncc2c1CCC(Nc1nc3c(-c4cnccc4OC)cccn3n1)C2 (stereo unspecified) (field: pIC50) = 6.92

Reported pIC50 ( CCn1ncc2c1CC[C@H](Nc1nc3c(-c4ccc(F)c(Cl)c4)cccn3n1)C2 ) = 6.71

Note to self: pIC50 recorded for CCn1ncc2c1CCC(Nc1nc3c(-c4ccc(N(C)C)nc4)cccn3n1)C2 (stereo unspecified) was 7.30
